Settings: human gut metagenome, 24 h, 2 µM; also: call rule not given here
experimentalReadout: Bacterial Biotransformation

Consider the reported Bacterial Biotransformation for these compounds:
COc1cc2nc(N(C)CCCNC(=O)C3CCCO3)nc(N)c2cc1OC (stereo not drawn) [ALFUZOSIN]
Compound metabolized
CC(C)(Oc1ccc(CCNC(=O)c2ccc(Cl)cc2)cc1)C(=O)O [BEZAFIBRATE]
Compound metabolized
CCOc1ccc(NC(C)=O)cc1 [PHENACETIN]
Compound NOT metabolized
COc1ccccc1N1CCN(CC(O)COc2cccc3ccccc23)CC1 (stereo not drawn) [NAFTOPIDIL]
Compound NOT metabolized
Cc1nc2n(c(=O)c1CCN1CCC(c3noc4cc(F)ccc34)CC1)CCCC2O (stereo not drawn) [PALIPERIDONE]
Compound metabolized

Batch lookup, Bacterial Biotransformation per entry.
1. O=C(CCCN1CCC(O)(c2ccc(Cl)cc2)CC1)c1ccc(F)cc1 [HALOPERIDOL]
2. c1ccc([C@H]2CN3CCSC3=N2)cc1 [LEVAMISOLE]
3. CCN(CC)CCNC(=O)c1cc(Cl)c(N)cc1OC [METOCLOPRAMIDE]
4. COc1ccc2[nH]c([S+]([O-])Cc3ncc(C)c(OC)c3C)nc2c1 (stereo not drawn) [OMEPRAZOLE]
5. CC(CN1c2ccccc2Sc2ccccc21)N(C)C (stereo not drawn) [PROMETHAZINE]

1. Compound metabolized
2. Compound metabolized
3. Compound NOT metabolized
4. Compound metabolized
5. Compound metabolized

Cited source: ChEMBL document CHEMBL5724914
